molecules and their reported inhibition
SYSTEM UNDER TEST: Histone-lysine N-methyltransferase EZH2 (Homo sapiens) (UniProt Q15910)
Sequence (Q15910 whole entry, looked up): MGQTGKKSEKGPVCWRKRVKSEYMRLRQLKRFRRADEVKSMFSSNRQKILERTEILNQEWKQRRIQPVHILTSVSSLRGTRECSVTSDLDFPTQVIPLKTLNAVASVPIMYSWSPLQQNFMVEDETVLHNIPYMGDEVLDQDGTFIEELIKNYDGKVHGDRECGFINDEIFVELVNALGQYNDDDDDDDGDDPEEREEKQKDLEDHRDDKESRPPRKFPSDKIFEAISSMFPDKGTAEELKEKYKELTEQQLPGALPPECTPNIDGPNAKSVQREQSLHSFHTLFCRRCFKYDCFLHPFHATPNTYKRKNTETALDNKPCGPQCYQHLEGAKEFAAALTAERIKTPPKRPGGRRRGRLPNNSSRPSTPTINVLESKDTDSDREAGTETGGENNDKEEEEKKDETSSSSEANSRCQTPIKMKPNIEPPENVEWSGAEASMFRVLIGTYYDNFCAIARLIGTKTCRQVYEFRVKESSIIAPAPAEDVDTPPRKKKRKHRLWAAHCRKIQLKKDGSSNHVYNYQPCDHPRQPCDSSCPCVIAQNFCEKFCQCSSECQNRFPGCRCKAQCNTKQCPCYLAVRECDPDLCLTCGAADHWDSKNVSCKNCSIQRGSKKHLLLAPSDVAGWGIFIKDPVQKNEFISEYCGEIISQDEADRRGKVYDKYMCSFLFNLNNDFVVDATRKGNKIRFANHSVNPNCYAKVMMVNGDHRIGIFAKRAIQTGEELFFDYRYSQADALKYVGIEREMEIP
ASSAY METHOD TEXT: EZH2/PRC2 methyltransferase inhibitors, primary screen, biochemical, DELFIA time-resolved fluorescence, single point (AID 651548);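 note: dimethyl H3K27 on biotinylated H3 21-44 peptide detected by antibody; plate controls were median neutral control wells for no effect and median positive control wells for full effect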
RECORDED CONDITIONS: PRC2 H3K27 methylation, DELFIA TRF, 1 h; at 12.5 µM; hits give high values
About 200 (0.35%) of roughly 57,000 compounds were called active. Many of the other results were omitted from the sample, so actives are more common in it than they were.
Form entry: value (%) — number only.

CC(C)(Cc1c[nH]c2ccc(Cl)cc12)NCCOc1ccccc1OCC1CC1 ... 3.93

Prompt: Any idea what inhibition was measured for C[C@@H]1O[C@@H](O[C@@H]2C=C3CC[C@@H]4C(C[C@@H](O)[C@]5(C)[C@@H](c6ccc(=O)oc6)CC[C@]45O)[C@@]3(C)CC2)[C@H](O)[C@H](O)[C@H]1O[C@@H]1O[C@H](CO)[C@@H](O)[C@H](O)[C@H]1O (some centres undefined) ?
Response: 75.9

Prompt: Any idea what inhibition was measured for c1ccc2c(c1)[I+]c1ccccc1-2 ?
Response: -3.64

Prompt: Any idea what inhibition was measured for c1ccc(CCCCN2CCC(c3ccccc3)CC2)cc1 ?
Response: 11.8

Where these numbers come from: PubChem BioAssay AID651548
